Data credit: patent US20240270821A1

# target.or.test.system: hGLP-1R (Homo sapiens)
# Sequence (P43220 24-463): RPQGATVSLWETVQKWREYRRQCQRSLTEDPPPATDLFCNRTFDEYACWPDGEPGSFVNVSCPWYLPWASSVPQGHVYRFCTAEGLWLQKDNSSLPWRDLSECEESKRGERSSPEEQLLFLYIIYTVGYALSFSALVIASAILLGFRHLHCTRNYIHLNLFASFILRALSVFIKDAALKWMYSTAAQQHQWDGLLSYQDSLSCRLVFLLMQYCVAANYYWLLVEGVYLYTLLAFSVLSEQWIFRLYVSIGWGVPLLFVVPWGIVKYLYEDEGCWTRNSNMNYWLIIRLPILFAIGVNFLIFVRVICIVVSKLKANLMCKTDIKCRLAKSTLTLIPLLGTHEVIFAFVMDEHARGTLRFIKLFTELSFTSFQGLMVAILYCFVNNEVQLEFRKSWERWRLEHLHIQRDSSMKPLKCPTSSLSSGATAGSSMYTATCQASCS
# procedure.text: Functional cAMP activation in the presence of 0.1% casein (no HSA);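 note: intracellular cAMP rise after 30 min at 37 °C read by HTRF, normalized between buffer only (0%) and maximal control ligand (100%), four-parameter variable-slope fit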
# Format: cell-based
# test.conditions: in the presence of 0.1% casein (no HSA); geometric mean; read-out: Relative cAMP EC50, hGLP-1R
pEC50: −log10 of the molar value. Starred links: 1 amine or outer side, 2 acyl side, 3 side chain; linkers in the order of their positions; H or OH if unused. Non-standard residues stand in square brackets, D forms with d. Groups on a side chain read outwards from the residue. No end group written: not given here. *: point of attachment. C20 diacid = O=C(O)CCCCCCCCCCCCCCCCCCC(=O)*; C18 diacid = O=C(O)CCCCCCCCCCCCCCCCC(=O)*; Phe(4-CN) = N#Cc1ccc(C[C@H](N)C(=O)O)cc1; αMePhe(2-F) = C[C@](N)(Cc1ccccc1F)C(=O)O; γGlu = O=C(O)[C@H](CCC(=O)[*:2])N[*:1]; NMeY = CN[C@@H](Cc1ccc(O)cc1)C(=O)O; αMe4Pal = C[C@](N)(Cc1ccncc1)C(=O)O; αMeY = C[C@](N)(Cc1ccc(O)cc1)C(=O)O; αMeF = C[C@](N)(Cc1ccccc1)C(=O)O; 4Pal = N[C@@H](Cc1ccncc1)C(=O)O; αMeL = CC(C)C[C@](C)(N)C(=O)O; αMeS = C[C@](N)(CO)C(=O)O; Iva = CC[C@](C)(N)C(=O)O; Orn = NCCC[C@H](N)C(=O)O; AEEA = NCCOCCOCC(=O)O; Aib = CC(C)(N)C(=O)O
Overview of recorded pEC50 for various substances

- substance: "H-Y[Aib]QGTFTSD[4Pal]SQ[αMeL]LD[Orn]K([AEEA-γGlu-C18 diacid])AQ[αMe4Pal]AFIEYLIA[Aib]GPSSGEPPPSGSEE-NH2 [Example 1095]"
  target.or.test.system: "hGLP-1R (Homo sapiens)"
  pEC50: 8.93
- substance: "H-Y[Aib]QGTFTSD[4Pal]SQ[αMeL]LDKK([AEEA-γGlu-C18 diacid])AQ[αMe4Pal]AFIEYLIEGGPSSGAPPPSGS-NH2 [Example 826]"
  target.or.test.system: "hGLP-1R (Homo sapiens)"
  pEC50: 8.56
- substance: "H-Y[Aib]QGTFTSD[4Pal]S[Orn][αMeL]LDKK([γGlu-γGlu-C18 diacid])AQ[αMe4Pal]AFIE[αMeY]LIAGGPSSGEPPPSGS-NH2 [Example 1014]"
  target.or.test.system: "hGLP-1R (Homo sapiens)"
  pEC50: 9.14
- substance: "H-Y[Aib]QGTFTSD[4Pal]SK[αMeL]LDKK([AEEA-γGlu-C18 diacid])AQ[Aib]AFIE[αMe4Pal]LIE[Aib]GPSSGAPPPSGS-NH2 [Example 914]"
  target.or.test.system: "hGLP-1R (Homo sapiens)"
  pEC50: 9.05
- substance: "H-Y[Aib]QGTFTSD[4Pal]SQ[αMeL]LDKK([dE-γGlu-C18 diacid])AQ[αMe4Pal]AFIEYLIE[Aib]GPSSGAPPPSGS-NH2 [Example 920]"
  target.or.test.system: "hGLP-1R (Homo sapiens)"
  pEC50: 8.64
- substance: "H-Y[Aib]QGTFTSDFS[Orn][αMeL]LDKK([AEEA-γGlu-C18 diacid])AQ[Aib]AFIEYLLE[Aib]G[4Pal]SSGAPPPSGE-NH2 [Example 248]"
  target.or.test.system: "hGLP-1R (Homo sapiens)"
  pEC50: 8.50
- substance: "Y[Aib]QGTFTSD[4Pal]SQ[αMeL]LD[Orn]K([γGlu-γGlu-C18 diacid])AQ[αMe4Pal]QFIE[αMeY]LIEGGPSSGEPPPSGSEE-NH2 [Example 1026]"
  target.or.test.system: "hGLP-1R (Homo sapiens)"
  pEC50: 8.75
- substance: "H-Y[Aib]QGTFTSDFSI[αMeL]LDKK([AEEA-γGlu-C20 diacid])AQ[Aib]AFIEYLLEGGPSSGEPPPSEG-NH2 [Example 288]"
  target.or.test.system: "hGLP-1R (Homo sapiens)"
  pEC50: 8.72
- substance: "H-Y[Aib]QGTFTSD[4Pal][αMeS]Q[αMeL]LD[Orn]K([dE-γGlu-C18 diacid])AQ[αMe4Pal]QFIE[αMeY]LIA[Aib]GPSSGAPPPSGGGE-NH2 [Example 1185]"
  target.or.test.system: "hGLP-1R (Homo sapiens)"
  pEC50: 9.12
- substance: "H-Y[Aib]QGT[αMePhe(2-F)]TSD[Phe(4-CN)]SILLDKQAQK([AEEA-AEEA-γGlu-C20 diacid])AFIEYLLEGGPSSGEPPPSAG-NH2 [Example 350]"
  target.or.test.system: "hGLP-1R (Homo sapiens)"
  pEC50: 9.11
- substance: "H-Y[Aib]QGTFTSD[4Pal]S[Orn][αMeL]LDKK([AEEA-γGlu-C18 diacid])AQ[Aib]AFIEYLLE[dA]GPSS[Aib]APPPSGT-NH2 [Example 275]"
  target.or.test.system: "hGLP-1R (Homo sapiens)"
  pEC50: 8.31
- substance: "Y[Aib]QGTFTSD[4Pal][αMeS]Q[αMeL]LD[Orn]K([dE-γGlu-C18 diacid])AQ[Iva]QFIQ[αMeY]LLE[Aib]GPSSGAPPPSGGGE-NH2 [Example 1139]"
  target.or.test.system: "hGLP-1R (Homo sapiens)"
  pEC50: 8.73
- substance: "H-Y[Aib]QGTFTSDFS[Orn][αMeL]LDKK([AEEA-AEEA-γGlu-C18 diacid])AQ[Aib]AFIEYLLE[Aib]GESSGAPPPSGS-NH2 [Example 179]"
  target.or.test.system: "hGLP-1R (Homo sapiens)"
  pEC50: 8.24
- substance: "H-Y[Aib]QGTFTSD[4Pal]SQ[αMeL]LD[Orn]K([AEEA-γGlu-γGlu-C18 diacid])AQ[αMe4Pal]AFIEYLIE[dA]GPSSGEPPPSGS-NH2 [Example 1018]"
  target.or.test.system: "hGLP-1R (Homo sapiens)"
  pEC50: 8.77
- substance: "Y[Aib]QGTFTSD[4Pal]SQ[αMeL]LDKK([dE-γGlu-dE-C18 diacid])AQ[αMe4Pal]AFIEYLIE[Aib]GPSSGAPPPSGS-NH2 [Example 923]"
  target.or.test.system: "hGLP-1R (Homo sapiens)"
  pEC50: 8.21
- substance: "Y[Aib]QGTFTSDFS[Orn][αMeL]LDKK([AEEA-γGlu-γGlu-C18 diacid])AQ[Aib]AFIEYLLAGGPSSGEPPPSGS-NH2 [Example 153]"
  target.or.test.system: "hGLP-1R (Homo sapiens)"
  pEC50: 8.15
- substance: "H-[NMeY][Aib]QGT[αMeF]TSDYSILLDKQAAK([AEEA-AEEA-γGlu-C20 diacid])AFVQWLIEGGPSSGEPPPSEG-NH2 [Example 302]"
  target.or.test.system: "hGLP-1R (Homo sapiens)"
  pEC50: 9.21
- substance: "H-Y[Aib]QGT[αMePhe(2-F)]TSD[4Pal][αMeS]I[αMeL]LD[Orn]K([AEEA-γGlu-C18 diacid])AQ[αMe4Pal]EFI[dE][αMeY]LIEGGPSSGAPPPEGE-NH2 [Example 1148]"
  target.or.test.system: "hGLP-1R (Homo sapiens)"
  pEC50: 9.52
- substance: "H-Y[Aib]QGTFTSDFSK[αMeL]LDKK([AEEA-γGlu-C20 diacid])AQ[Aib]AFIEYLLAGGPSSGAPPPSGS-NH2 [Example 14]"
  target.or.test.system: "hGLP-1R (Homo sapiens)"
  pEC50: 8.78
- substance: "H-Y[Aib]QGTFTSD[4Pal]SQ[αMeL]LD[Orn]K([AEEA-γGlu-C18 diacid])AQ[αMe4Pal]AFIE[αMeY]LIE[Aib]GPSSGAPPPSGSEE-NH2 [Example 1108]"
  target.or.test.system: "hGLP-1R (Homo sapiens)"
  pEC50: 9.12
- substance: "H-Y[Aib]QGTFTSDFS[Orn][αMeL]LDKK([AEEA-γGlu-C18 diacid])AQ[Aib]AFIEYLLE[Aib]GESSGAPPPSGS-NH2 [Example 240]"
  target.or.test.system: "hGLP-1R (Homo sapiens)"
  pEC50: 8.44
- substance: "H-Y[Aib]QGTFTSDFSK[αMeL]LDKK([AEEA-γGlu-C20 diacid])AQ[Aib]AFIEYLLAGGPSSGEPPPSEG[AEEA]-NH2 [Example 32]"
  target.or.test.system: "hGLP-1R (Homo sapiens)"
  pEC50: 8.59
